Source: the SangsterLogP compilation

# assay-comment: method code SF-TN, from Korenman, I M.; Gurevich, N.; Kulagina, G. (1973). Extraction of certain n-alkylamines from aqueous solutions. Zh. Prikl. Khim., 46(3)726-728.
endpoint-name: logP

[[record]]
smiles_str = "CCCN"
endpoint_name = "logP"
obs_value = 0.28


###

In this section we review reported logP values for a set of compounds.
endpoint-name: logP

[[record]]
smiles_str = "COc1ccc(N2C(=O)CN(Cc3c(C(=O)O)[nH]c4cc(Cl)cc(Cl)c34)C2=O)cc1"
obs_value = 2.26

[[record]]
smiles_str = "O=C(O)c1[nH]c2cc(Cl)cc(Cl)c2c1CN1CC(=O)N(c2ccc(OCCF)c(Cl)c2)C1=O"
obs_value = 2.53

[[record]]
smiles_str = "O=C(O)c1[nH]c2cc(Cl)cc(Cl)c2c1CN1CC(=O)N(c2ccccc2OCCF)C1=O"
obs_value = 1.51

[[record]]
smiles_str = "O=C(O)c1[nH]c2cc(Cl)cc(Cl)c2c1CN1CC(=O)N(c2ccc(OCCF)cc2)C1=O"
obs_value = 2.07


###

# assay-comment: method code SF-AS, from Falk, M.; Luecke, L. (1989). Transport of substances through lipid membranes. 11. Effect of esterification on the dissociation and permeation of orotic acid. Pharmazie, 44(9)647.
# assay-conditions: pH 1.2
endpoint-name: logD

[[record]]
smiles_str = "CCCCCCCCCOC(=O)c1cc(=O)[nH]c(=O)[nH]1"
endpoint_name = "logD"
obs_value = 2.41

[[record]]
smiles_str = "CCCCCCCCOC(=O)c1cc(=O)[nH]c(=O)[nH]1"
endpoint_name = "logD"
obs_value = 2.6

[[record]]
smiles_str = "CCCCCCCOC(=O)c1cc(=O)[nH]c(=O)[nH]1"
endpoint_name = "logD"
obs_value = 2.15


###

# assay-comment: method code SF-RC, from DOI: 10.1016/j.nucmedbio.2012.01.004, PMID: 22336372
# assay-conditions: pH 7.4
endpoint-name: logD

[[record]]
compound = "C#CCN(CCF)c1ccc(S(=O)c2ccc([N+](=O)[O-])cc2)cc1 (stereo unspecified)"
obs_value = 2.6


###

endpoint-name: logP

[[record]]
smiles_str = "CN1CN(c2ccccc2)C2(CCN(CCCC(=O)c3ccc(I)s3)CC2)C1=O"
obs_value = 3.14


###

endpoint-name: logP

[[record]]
smiles_str = "Oc1ccc(C23CC4CC(CC(C4)C2)C3)cc1"
endpoint_name = "logP"
obs_value = 5.46


###

endpoint-name: logP

[[record]]
smiles_str = "O=S(=O)(CS(=O)(=O)C(F)(F)F)c1ccc(Cl)c(Cl)c1"
obs_value = 1.7


###

# assay-comment: method code SF, from DOI: 10.1016/0378-5173(90)90261-2
# assay-conditions: pH 3.0
Catalogue of logD values
endpoint-name: logD

[[record]]
smiles_str = "O=C(O)CCCCCc1ccccc1"
endpoint_name = "logD"
obs_value = 3.27

[[record]]
smiles_str = "O=C(O)CCCCCCc1ccccc1"
endpoint_name = "logD"
obs_value = 3.63

[[record]]
smiles_str = "O=C(O)CCCCCCCc1ccccc1"
endpoint_name = "logD"
obs_value = 4.09


###

# assay-comment: method code SF-AS, from Lee, B.; Shin, J.; Lim, M.; Jang, T.; Park, J.; Kim, K.; Kang, W. (1997). Partition Property of 5-Nitrothiopyrimidine Nucleoside. Bull Korean Chem Soc, 18(7)734-736.
# assay-conditions: pH 7.0
endpoint-name: logD

[[record]]
smiles_str = "O=[N+]([O-])c1c[nH]c(=S)[nH]c1=S"
obs_value = 0.52

[[record]]
smiles_str = "O=c1[nH]cc([N+](=O)[O-])c(=O)[nH]1"
obs_value = -1.38

